- Test system: mitochondrial membrane potential (ΔΨm)
- assayProcedure: Membrane potential (ΔΨm) counterscreen with TMRM
- measurementSetup: Table 8, glutamate, malate, nigericin
parameterMeasured: ΔΨm
Numbers only.

Fc1ccc(SCCc2ccccn2)cc1 [Compound 42] ... 0.4
COc1ccc(NC(=S)NC(=O)c2ccco2)cc1 [Compound 75] ... −2

Please report ΔΨm for every entry that follows.
1. Cc1cc(OCC(O)CN(Cc2ccccc2)C(C)(C)C)ccc1[N+](=O)[O-] (centres unmarked) [Compound 82]
2. CC1=CC(C)C(C2OCC(CN3CCCCC3)O2)C(C)C1 (centres unmarked) [Compound 13]
3. O=C(O)C1CCCCC1C(=O)NC1CCCCC1 (centres unmarked) [Compound 19]

1. 0
2. −0.5
3. −1.4

* * *

For each record, write down the corresponding inhibition at 2.5 µM.
- systemTested: flavin binding site of complex I (IF) (Rattus norvegicus)
- Construct: freshly isolated muscle mitochondria were assayed; from tissue; host or cells: rat skeletal muscle mitochondria (Wistar, Harlan Laboratories)
- assayProcedure: High-throughput screen: ROS production from flavin binding site of complex I (IF)
- Format: biochemical
- measurementSetup: Table 7; percent change in ROS from DMSO controls; read-out: IF
One number for each entry, in %.

O=C(Nc1ccccc1F)[C@@H]1C2C=CC(C2)[C@@H]1C(=O)O (some centres unmarked) [Compound 20] ... 24
COc1ccccc1/C=C/c1nc(O)nc(O)c1[N+](=O)[O-] [Compound 16] ... 26.7
c1ccc2[nH]c(-c3ccc(-c4nc5ccccc5[nH]4)cc3)nc2c1 [Compound 55] ... 1.9
O=C(Nc1ccc(Br)cc1)[C@@H]1C2C=CC(C2)[C@@H]1C(=O)O (some centres unmarked) [Compound 28] ... 19.1

I'd like to know its inhibition at 2.5 µM. The molecule in question is CCCC(=O)Nc1ccc(-c2nc3cc4ccccc4cc3[nH]2)cc1 [Compound 68] 1.3

* * *

- systemTested: succinate dehydrogenase/complex II (SDH) (Rattus norvegicus, UniProt P21913+Q641Z9+Q6PCT8+Q920L2)
- Construct: freshly isolated muscle mitochondria were assayed; from tissue; host or cells: rat skeletal muscle mitochondria (Wistar, Harlan Laboratories)
- Sequence (Q920L2 35-656): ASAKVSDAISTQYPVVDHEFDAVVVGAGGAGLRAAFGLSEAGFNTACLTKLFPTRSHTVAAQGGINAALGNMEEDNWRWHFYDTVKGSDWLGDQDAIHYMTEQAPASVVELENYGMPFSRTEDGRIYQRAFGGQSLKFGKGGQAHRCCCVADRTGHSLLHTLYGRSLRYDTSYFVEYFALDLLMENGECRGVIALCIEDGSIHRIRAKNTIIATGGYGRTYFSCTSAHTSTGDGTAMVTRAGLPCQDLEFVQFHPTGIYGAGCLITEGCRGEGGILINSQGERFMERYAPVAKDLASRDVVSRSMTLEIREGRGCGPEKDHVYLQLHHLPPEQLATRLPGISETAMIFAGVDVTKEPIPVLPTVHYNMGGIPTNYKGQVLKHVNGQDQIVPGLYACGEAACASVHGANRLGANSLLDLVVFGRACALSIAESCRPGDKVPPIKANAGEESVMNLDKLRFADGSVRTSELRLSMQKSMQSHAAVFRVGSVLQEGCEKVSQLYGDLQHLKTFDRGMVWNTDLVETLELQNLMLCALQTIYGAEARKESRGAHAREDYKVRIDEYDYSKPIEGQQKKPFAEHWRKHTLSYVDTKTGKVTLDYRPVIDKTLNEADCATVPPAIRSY
- Sequence (P21913 31-282): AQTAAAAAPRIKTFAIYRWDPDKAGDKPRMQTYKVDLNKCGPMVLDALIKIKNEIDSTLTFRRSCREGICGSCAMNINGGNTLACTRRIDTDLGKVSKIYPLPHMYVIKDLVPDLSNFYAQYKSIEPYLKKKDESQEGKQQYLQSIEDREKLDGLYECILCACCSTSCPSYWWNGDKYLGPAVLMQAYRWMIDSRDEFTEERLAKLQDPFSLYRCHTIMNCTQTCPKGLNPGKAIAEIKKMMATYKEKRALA
- Sequence (Q641Z9 30-169 limits assumed): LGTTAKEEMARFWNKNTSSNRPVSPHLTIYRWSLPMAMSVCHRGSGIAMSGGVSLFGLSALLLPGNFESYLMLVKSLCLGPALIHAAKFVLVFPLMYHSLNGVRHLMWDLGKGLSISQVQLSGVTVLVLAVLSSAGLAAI
- Sequence (Q6PCT8 57-159): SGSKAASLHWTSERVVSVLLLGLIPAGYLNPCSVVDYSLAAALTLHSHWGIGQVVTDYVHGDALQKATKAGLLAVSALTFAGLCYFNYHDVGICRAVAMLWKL
- assayProcedure: High-throughput screen: ROS production from succinate dehydrogenase/complex II (SDH)
- Assay type: biochemical
- measurementSetup: Table 7; percent change in ROS from DMSO controls
For each record, write down the corresponding inhibition at 2.5 µM.
Answers are plain numbers, in %.

CC1=CC(C)(C)N(Cc2ccc([N+](=O)[O-])cc2)c2ccccc21 [Compound 37] ... -1.2
O=C(O)C1CCCCC1C(=O)NC1CCCCCCC1 (stereo not shown) [Compound 30] ... -3.3
CCCN(CCO)Cc1ccc2c(c1)c1ccccc1n2CC [Compound 15] ... 2.7
COc1ccc(-c2ccccc2)cc1NCC1=CC[C@H]2C[C@@H]1C2(C)C [Compound 41] ... -1.2
COc1ccc(C2C(C#N)=C(N)Oc3c2c(=O)oc2ccccc32)cc1O (stereo not shown) [Compound 74] ... 20.9

Please report inhibition at 2.5 µM for every entry that follows.
1. CCCC(=O)Nc1ccc(-c2nc3cc4ccccc4cc3[nH]2)cc1 [Compound 68]
2. Cc1ccc(NS(=O)(=O)c2ccc(C3CCCCC3)cc2)cc1 [Compound 6]
3. O=C(Nc1ccccc1F)[C@@H]1C2C=CC(C2)[C@@H]1C(=O)O (stereo partly shown) [Compound 20]
4. Cc1ccccc1NS(=O)(=O)c1ccc(-c2ccc(S(=O)(=O)Nc3ccccc3C)cc2)cc1 [Compound 12]
5. CC(=O)Nc1ccc(S(=O)(=O)Nc2cccc(C)c2)cc1 [Compound 10]
6. CC1=CC(C)C(C2OCC(CN3CCCCC3)O2)C(C)C1 (stereo not shown) [Compound 13]
7. COc1ccc(/C=C2\C(=O)NC(=S)N(c3ccccc3)C2=O)cc1Br [Compound 52]
8. Cl.OC12CCCCC1C(c1cccc(Cl)c1)NCC2 (stereo not shown) [Compound 51]

1. 3.7
2. 1.1
3. 0.7
4. 0.1
5. -1
6. 2.8
7. -4.6
8. 1.8

* * *

- systemTested: flavin binding site of complex I (IF) (Rattus norvegicus, UniProt Q5XIH3)
- Construct: freshly isolated muscle mitochondria were assayed; from tissue; host or cells: rat skeletal muscle mitochondria (Wistar, Harlan Laboratories)
- Sequence (Q5XIH3 21-464 limits assumed, one chain of several): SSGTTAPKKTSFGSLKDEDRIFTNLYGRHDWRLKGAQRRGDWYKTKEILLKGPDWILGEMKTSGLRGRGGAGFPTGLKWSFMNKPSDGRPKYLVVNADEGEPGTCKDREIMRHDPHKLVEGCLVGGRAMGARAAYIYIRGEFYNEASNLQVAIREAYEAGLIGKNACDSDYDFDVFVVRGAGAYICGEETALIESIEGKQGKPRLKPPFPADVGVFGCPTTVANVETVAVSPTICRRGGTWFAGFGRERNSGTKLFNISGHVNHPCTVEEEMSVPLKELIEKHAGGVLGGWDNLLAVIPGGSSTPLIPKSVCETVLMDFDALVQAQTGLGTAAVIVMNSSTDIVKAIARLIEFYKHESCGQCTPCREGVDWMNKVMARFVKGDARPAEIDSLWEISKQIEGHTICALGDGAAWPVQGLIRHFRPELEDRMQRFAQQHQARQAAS
- assayProcedure: High-throughput screen: ROS production from flavin binding site of complex I (IF)
- Format: biochemical
- measurementSetup: Table 9; percent change in ROS from DMSO controls
Lab note: compare IF with -1, writing t if less and f if equal or more.

Use the examples below as a reference point.
O=C(Nc1ccccc1[N+](=O)[O-])c1cccc(S(=O)(=O)Nc2ccccc2)c1 [Compound 73] ... f
CC(=O)Nc1ccc(S(=O)(=O)Nc2cccc(C)c2)cc1 [Compound 10] ... f
CCSC1=C(C#N)C2(CCCC2)C(C#N)C(=O)N1 (centres unmarked) [Compound 2] ... t
CCCCN(Cc1ccccc1)Cc1cc(Cl)cc(Cl)c1O [Compound 38] ... t

Note: attention shifts to another entry.
# TODO verify IF < -1 strictly for this molecule: O=[N+]([O-])c1ccc(Oc2ccc(S(=O)(=O)Nc3ccc(F)cc3)cc2)cc1 [Compound 84] t

* * *

For each record, write down the corresponding SDH.
- systemTested: succinate dehydrogenase/complex II (SDH) (Rattus norvegicus, UniProt P21913+Q641Z9+Q6PCT8+Q920L2)
- Construct: freshly isolated muscle mitochondria were assayed; from tissue; host or cells: rat skeletal muscle mitochondria (Wistar, Harlan Laboratories)
- assayProcedure: High-throughput screen: ROS production from succinate dehydrogenase/complex II (SDH)
- Format: biochemical
- measurementSetup: Table 8; percent change in ROS from DMSO controls
Give bare numbers.

Cc1ccc(NS(=O)(=O)c2ccc(C3CCCCC3)cc2)cc1 [Compound 6] ... −1.1
O=C(Nc1ccccc1C(=O)O)c1ccccc1 [Compound 18] ... −0.3
CC(=O)Nc1ccc(S(=O)(=O)Nc2cccc(C)c2)cc1 [Compound 10] ... 1.0
Oc1nnc(Cc2ccncc2)c2ccccc12 [Compound 72] ... −27.4
COc1ccccc1/C=C/c1nc(O)nc(O)c1[N+](=O)[O-] [Compound 16] ... 4.2
CC(C)Cc1ccc(C(C)C(=O)Nc2ccccc2O)cc1 (stereo not shown) [Compound 5] ... 2.3

Please report SDH for every entry that follows.
1. O=C(COc1ccc(Cl)cc1Cl)Nc1ccc(F)cc1F [Compound 24]
2. CC(C)(C)NS(=O)(=O)c1ccc2c(c1)C(=O)c1ccccc1C2=O [Compound 1]
3. CN(C)CCN(Cc1ccccc1)Cc1ccc(C(F)(F)F)cc1 [Compound 29]
4. CCSC1=C(C#N)C2(CCCC2)C(C#N)C(=O)N1 (stereo not shown) [Compound 2]
5. C=CCSc1nc(N)c(C#N)c(CC)c1C#N [Compound 7]
6. O=[N+]([O-])c1ccc(Oc2ccc(S(=O)(=O)Nc3ccc(F)cc3)cc2)cc1 [Compound 84]
7. Cc1ccc(C(C)C)c(OCC(O)CN2CCN(Cc3ccccc3)CC2)c1.Cl.Cl (stereo not shown) [Compound 21]
8. CC1=CC(C)(C)N(Cc2ccc([N+](=O)[O-])cc2)c2ccccc21 [Compound 37]

1: −1.5; 2: −8.2; 3: −0.1; 4: 2.6; 5: 2.1; 6: 0.7; 7: 1.7; 8: 1.2

Please report SDH for every entry that follows.
1. COc1cccc(/C=C/C(=O)c2c(O)cc(C)oc2=O)c1O [Compound 17]
2. CN(C)CCN(Cc1ccccc1)Cc1ccccc1Br [Compound 23]
3. COc1ccc(C2C(C#N)=C(N)Oc3c2c(=O)oc2ccccc32)cc1O (stereo not shown) [Compound 74]
4. Cc1ccccc1NS(=O)(=O)c1ccc(C2CCCCC2)cc1 [Compound 9]
5. CC1=CC(C)C(C2OCC(CN3CCCCC3)O2)C(C)C1 (stereo not shown) [Compound 13]

−3.4
1.7
−20.9
0.3
−2.8

* * *

- systemTested: flavin binding site of complex I (IF) (Rattus norvegicus)
- Construct: freshly isolated muscle mitochondria were assayed; from tissue; host or cells: rat skeletal muscle mitochondria (Wistar, Harlan Laboratories)
- assayProcedure: High-throughput screen: ROS production from flavin binding site of complex I (IF)
- Assay type: biochemical
- measurementSetup: Table 7; percent change in ROS from DMSO controls; read-out: IF
parameterMeasured: inhibition at 2.5 µM (%)
Numbers only, in %.

Sample records with inhibition at 2.5 µM:
COc1ccc(C2C(C#N)=C(N)Oc3c2c(=O)oc2ccccc32)cc1O (stereo not shown) ... -0.4
C=CCSc1nc(N)c(C#N)c(CC)c1C#N ... -1.3
CCN1CCN(C/C=C/c2ccc(N(C)C)cc2)CC1 ... 6.5
Cc1ccc(C(C)C)c(OCC(O)CN2CCN(Cc3ccccc3)CC2)c1.Cl.Cl (stereo not shown) ... 23
O=C(Nc1ccccc1C(=O)O)c1ccccc1 ... 25.8
COc1cccc(/C=C/C(=O)c2c(O)cc(C)oc2=O)c1O ... 26

Please report inhibition at 2.5 µM for every entry that follows.
1. CC(C)Cc1ccc(C(C)C(=O)Nc2ccccc2O)cc1 (stereo not shown)
2. CN(C)CCN(Cc1ccccc1)Cc1ccccc1Br

[-0.2, 21.1]

Please report inhibition at 2.5 µM for every entry that follows.
1. CC(C)(C)C1=NN(c2c(Cl)cc(Cl)cc2Cl)C(=O)C1
2. CC1=CC(C)(C)N(Cc2ccc([N+](=O)[O-])cc2)c2ccccc21

1: -0.5; 2: -0.6
